# Test system: T-type Ca channels (guinea pig atrial cells)
# method_notes: whole-cell patch clamp, tail current analysis, modulated receptor theory
# Format: cell-based, Cavia porcellus
# assay_conditions: read-out: KI; inactivated state (apparent); 30-s prepulse
pKd: −log10 of the molar value.
quantity_name: pKd

>>> print(df.to_string())
                                   compound  quantity_name  quantitative_readout
0  CC1=C(C(=O)OC(C)C)[C@@H](c2cccc3nonc23)C([N+](=O)[O-])=C(C)N1 [(-)-(R)-202-791]            pKd                  7.82
1  COC(=O)C1=C(C)NC(C)=C(C(=O)OC(C)C)C1c1cccc2nonc12 (centres unmarked)            pKd                  7.69
